Biological target: GPR139 (Homo sapiens, UniProt Q6DWJ6)
Construct: host or cells: CHO-k1
Sequence (Q6DWJ6 whole entry): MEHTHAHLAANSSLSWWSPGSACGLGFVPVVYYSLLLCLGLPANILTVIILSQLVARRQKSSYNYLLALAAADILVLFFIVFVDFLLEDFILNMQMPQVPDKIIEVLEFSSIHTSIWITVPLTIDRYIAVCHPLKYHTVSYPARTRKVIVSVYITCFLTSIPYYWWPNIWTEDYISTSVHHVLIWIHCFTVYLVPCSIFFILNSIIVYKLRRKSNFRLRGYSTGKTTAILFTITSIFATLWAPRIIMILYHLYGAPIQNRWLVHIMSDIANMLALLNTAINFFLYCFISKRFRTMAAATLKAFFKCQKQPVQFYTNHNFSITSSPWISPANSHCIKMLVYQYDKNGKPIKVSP
Test: Fluo-4 calcium mobilization assay, agonist mode, concentration-response curves in CHO-GPR139 cells
Format: cell-based
Conditions: CHO-GPR139 cells; normalized to buffer (0%) and 8 μM 1a (100%)
Please assign no (0) whenever Emax ± S.E.M. is at or above 90%, and yes (1) whenever it is below.

1. Cc1ccc(C(=O)CN2C(=O)NC(C)(c3ccc4c(c3)OCO4)C2=O)cc1 (stereo not shown) ... yes (1)
2. CC1(c2ccc3c(c2)OCCO3)NC(=O)N(CC(=O)c2ccc3c(c2)OCO3)C1=O (stereo not shown) ... no (0)
3. CC1(c2cccc3ccccc23)NC(=O)N(CC(=O)NCCc2ccccc2)C1=O (stereo not shown) ... yes (1)
4. CCc1cccc2c(C(=O)CN3C(=O)NC(C)(c4ccc5c(c4)OCO5)C3=O)c[nH]c12 (stereo not shown) ... no (0)
5. CC1(c2ccc3c(c2)OCO3)NC(=O)N(CC(=O)c2ccc(Cl)s2)C1=O (stereo not shown) ... no (0)
6. CC1(c2cccc3ccccc23)NC(=O)N(CC(=O)c2cc3ccccc3o2)C1=O (stereo not shown) ... yes (1)
7. CC1(c2cccc3ccccc23)NC(=O)N(CC(=O)N2CCCCCC2)C1=O (stereo not shown) ... no (0)
8. CCc1cccc2c(C(=O)CN3C(=O)NC(C)(c4ccc5c(c4)OCCO5)C3=O)c[nH]c12 (stereo not shown) ... no (0)
9. CC1(c2ccc3c(c2)OCO3)NC(=O)N(CC(=O)N2CCCCC2)C1=O (stereo not shown) ... no (0)
10. CC(C)COCCCNC(=O)NC(C)c1ccc(Br)cc1 (stereo not shown) ... no (0)
11. CC1(c2ccc3c(c2)OCO3)NC(=O)N(CC(=O)N2CCCc3ccccc32)C1=O (stereo not shown) ... no (0)
12. COc1cccc(C(=O)CN2C(=O)NC(C)(c3ccc(Cl)cc3)C2=O)c1 (stereo not shown) ... no (0)
13. C=CCN(CC=C)C(=O)CN1C(=O)NC(C)(c2ccc3c(c2)OCO3)C1=O (stereo not shown) ... no (0)
14. O=C(NCCCc1nc2ccccc2[nH]1)NC1CCSc2ccc(F)cc21 (stereo not shown) ... no (0)
15. CC1(c2cccc3ccccc23)NC(=O)N(CC(=O)c2ccc3c(c2)OCO3)C1=O (stereo not shown) ... no (0)
16. CC(NC(=O)NCC(=O)NCC1CC1)c1ccc(F)cc1Cl (stereo not shown) ... no (0)
